- Test system: Mtb (moxR) FNDR-M1
- method: microbe, parasite or virus in culture
- Format: cell-based
- conditionParameters: Mycobacterium tuberculosis, M. tuberculosis FNDR-M1; single well replicates
recordedEndpoint: MIC (µM)
Your answer is read as µM, so omit the unit and give the number.

# input Under Mtb (moxR) FNDR-M1: MIC value of COc1c(N2C[C@@H]3CCCN[C@@H]3C2)c(F)cc2c(=O)c(C(=O)O)cn(C3CC3)c12 [Moxifloxacin, reference compound] ?
# output 19.9

# input Consider next the compound COC(c1ccccc1)C1NC(=O)C(C)NC(=O)C(CC(C)CO)N(C)C(=O)C(Cc2cn(C)c3ccccc23)NC(=O)C(Cc2cn(CCCCCn3cc(CC4NC(=O)C(CC(C)C)N(C)C(=O)C(C(C)C)NC(=O)C(C(OC)c5ccccc5)NC(=O)C(C)NC(=O)C(CC(C)CO)N(C)C(=O)C(Cc5cn(C)c6ccccc56)NC4=O)nn3)nn2)NC(=O)C(CC(C)C)N(C)C(=O)C(C(C)C)NC1=O (centres unmarked) in the same way.
# output 0.195
